# Target System: T1, recombinant human TIGIT (Sino Biological) (human, UniProt Q495A1 22-138)
# T1 construct: Bought protein; NP_776160.2; also called human TIGIT antigen; hTIGIT
# T1 sequence: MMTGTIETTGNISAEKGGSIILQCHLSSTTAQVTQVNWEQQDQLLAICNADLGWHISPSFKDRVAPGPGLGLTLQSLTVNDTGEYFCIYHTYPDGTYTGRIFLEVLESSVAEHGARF
# Assay Name: SPR (Biacore T200), single cycle kinetics, IgG from supernatant captured on anti-human chip, TIGIT as analyte, 1:1 fit;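 note: measured at 25 °C in HBS-P+ with 1% BSA, four ascending TIGIT concentrations, 210 s association per step, one final 900 s dissociation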
Provide the recorded kon for the entries that follow.
Numbers only, in M⁻¹ s⁻¹.

>>> assay_result("7A6 VH5/Vκ3 humanized antibody (human IgG1, kappa) (antibody, V domains shown, Tested as IgG in supernatant of transiently transfected HEK293 EBNA cells) VH: QVQLQESGPGLVKPSQTLSLTCTVTGYSITSDYAWNWIRQPPGKGLEWMGYISYSGSARYNPSLKSRVTISVDTSKNQFSLKLSSVTAADTAVYYCARKGYPAYFAYWGQGTLVTVSS VL: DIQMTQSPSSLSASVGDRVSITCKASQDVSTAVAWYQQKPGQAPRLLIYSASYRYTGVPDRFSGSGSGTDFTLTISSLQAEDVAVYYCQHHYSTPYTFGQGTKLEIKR")
"1.25e+06"

Turning to the following binder.
// query Which value of kon has been reported for 7A6 VH3/Vκ3 humanized antibody (human IgG1, kappa) (antibody, V domains shown, Tested as IgG in supernatant of transiently transfected HEK293 EBNA cells) VH: QVQLQESGPGLVKPSQTLSLTCTVTGYSITSDYAWNWIRQPPGKGLEWMGYISYSGSARYNPSLKSRVTISRDTSKNQFSLKLSSVTAEDTATYYCARKGYPAYFAYWGQGTLVTVSS VL: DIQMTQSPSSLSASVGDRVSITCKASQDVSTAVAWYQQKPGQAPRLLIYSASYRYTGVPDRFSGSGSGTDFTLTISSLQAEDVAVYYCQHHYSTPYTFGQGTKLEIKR in the records?
// result 1.66e+06
